// reported Human microsome % 60 min for each item listed
- measurementDescription: Metabolic stability in human liver microsomes (in vitro t1/2)
- Format: in vitro ADME
- condition: human liver microsomes, 60 min

Check out these entries, answers already filled in.
- compound: "Cc1ccccc1-n1nc(COC(C)(C)C(=O)O)cc1-c1cccc(OC2CC2)c1 [Example 188]"
  Human microsome % 60 min: "101%"
- compound: "CC(C)COc1cccc(-c2cc(COC(C)(C)C(=O)O)nn2Cc2ccccc2Cl)c1 [Example 27]"
  Human microsome % 60 min: "43%"
- compound: "CCOc1ccccc1Cn1nc(COC(C)(C)C(=O)O)cc1-c1cccc(OC2CC2)c1 [Example 201]"
  Human microsome % 60 min: "58%"
- compound: "CC(C)Oc1ncc(-c2cc(COC(C)(C)C(=O)O)nn2Cc2ccccc2Cl)s1 [Example 133]"
  Human microsome % 60 min: "97%"
- compound: "CCOc1cccc(-n2nc(COC(C)(C)C(=O)O)cc2-c2cc(OC)cc(OC)c2)c1 [Example 243]"
  Human microsome % 60 min: "88%"

Given the entry CC(C)(OCc1cc(-c2cccc(OC3CC3)c2)n(-c2ccccc2Cl)n1)C(=O)O [Example 110] , report its measured Human microsome % 60 min.
99%
